Readings of IC50 for the listed compounds
# Tested on: NF-kappaB reporter gene activation in HEK293 cells
# ASSAY PROCEDURE: NF-kappaB reporter assay
# Assay type: cell-based
# EXPERIMENTAL PARAMETERS: Homo sapiens, pNFkBluc reporter, 20 ng/ml TNF alpha, 5 h, read-out: NF-kappaB activation (activity range), IC50
MEASURED METRIC: IC50

[
  {
    "COMPOUND": "COc1ccccc1-c1ccnc(Nc2cccc(S(C)(=O)=O)c2)c1",
    "MEASURED METRIC": "IC50",
    "EXPERIMENTAL RESULT": "1000 to 10000 nM"
  },
  {
    "COMPOUND": "COc1cc(F)ccc1-c1ccnc(Nc2cccc(CS(N)(=O)=O)c2)c1",
    "MEASURED METRIC": "IC50",
    "EXPERIMENTAL RESULT": "100 to 1000 nM"
  },
  {
    "COMPOUND": "COc1ccccc1-c1ccnc(Nc2cccc([N+](=O)[O-])c2)c1",
    "MEASURED METRIC": "IC50",
    "EXPERIMENTAL RESULT": "1000 to 10000 nM"
  },
  {
    "COMPOUND": "COc1ccccc1-c1ccnc(Nc2ccc(S(N)(=O)=O)cc2)c1 [Compound E1]",
    "MEASURED METRIC": "IC50",
    "EXPERIMENTAL RESULT": "1000 to 10000 nM"
  },
  {
    "COMPOUND": "COc1ccccc1-c1ccnc(Nc2ccccc2)c1",
    "MEASURED METRIC": "IC50",
    "EXPERIMENTAL RESULT": "> 10000 nM"
  },
  {
    "COMPOUND": "COc1ccccc1-c1ccnc(Nc2cccc(S(N)(=O)=O)c2)c1 [Compound D1]",
    "MEASURED METRIC": "IC50",
    "EXPERIMENTAL RESULT": "100 to 1000 nM"
  }
]

---

// IC50 lookup, one value per entry
# System: LPS-induced TNF alpha release in PBMCs
# ASSAY PROCEDURE: TNF alpha release assay (LPS-stimulated PBMCs)
# Type: cell-based
# EXPERIMENTAL PARAMETERS: Homo sapiens, PBMC, 1 μg/mL LPS, 6 h, read-out: TNF alpha release (activity range), IC50

[
  {
    "COMPOUND": "COc1ccccc1-c1ccnc(Nc2cccc(S(N)(=O)=O)c2)c1 [Compound D1]",
    "IC50": "0.1 to 1 µM"
  },
  {
    "COMPOUND": "COc1cc(F)ccc1-c1ccnc(Nc2cccc(CS(N)(=O)=O)c2)c1 [Compound G1]",
    "IC50": "0.1 to 1 µM"
  },
  {
    "COMPOUND": "COc1ccccc1-c1ccnc(Nc2ccccc2)c1 [Compound B1]",
    "IC50": "> 10 µM"
  },
  {
    "COMPOUND": "COc1ccccc1-c1ccnc(Nc2ccc(S(N)(=O)=O)cc2)c1 [Compound E1]",
    "IC50": "1 to 10 µM"
  },
  {
    "COMPOUND": "COc1ccccc1-c1ccnc(Nc2cccc([N+](=O)[O-])c2)c1 [Compound C1]",
    "IC50": "1 to 10 µM"
  },
  {
    "COMPOUND": "COc1ccccc1-c1ccnc(Nc2cccc(S(C)(=O)=O)c2)c1 [Compound F1]",
    "IC50": "1 to 10 µM"
  }
]
